System: NCI-H522
TEST SUMMARY: NCI tumour cell line growth inhibition, 48 h
Active and inactive are the calls of the source. Cut-off read from the data, not from the text of the source: active = GI50 up to about 1.1 µM and inactive = higher.
Write down the outcome that applies. Available outcomes: active, inactive

Name the outcome recorded for CS(=O)(=O)N1CC(CCl)c2ccc(O)cc21 (stereo not given) in the assay.
inactive

Tell me the recorded outcome of this test for COC1CC(OC2C(C)OC(OC3C(C)OC(OC4C(O)CC(O[C@H]5CC[C@@]6(C)C(=CC[C@]7(O)[C@@H]6C[C@@H](OC(=O)/C=C/c6ccccc6)[C@@]6(C)[C@]7(O)CC[C@@]6(O)C(C)=O)C5)OC4C)CC3OC)CC2OC)OC(C)C1O (stereo not given in full) .
inactive

Which result was noted for this compound in the test: OC12COc3ccccc3C1Oc1ccccc1C2 (stereo not given)
inactive

Hi, do you know how O=C(Nc1nc(C23CC4CC(CC(C4)C2)C3)cs1)c1cc2ccccc2oc1=O came out in this test?
inactive

So what was the verdict on CN(C)CCCNC(=O)c1cn2c(ccc3sc4ccccc4c(=O)c32)n1 in this test?
inactive

Each compound tested received a call. Report the one for O=[N+]([O-])c1cccc2nc3ccccc3c(NCCCNc3c4ccccc4nc4cccc([N+](=O)[O-])c34)c12 .
active

What call does the record list for C[C@H]1[C@H](C)CC[C@]2(C(=O)OC3OC(CO)C(O)C(O)C3O)CC[C@]3(C)C(=CC[C@@H]4[C@@]5(C)C[C@@H](O)[C@@H]6OC(=O)c7cc(O)c(O)c(O)c7-c7c(cc(O)c(O)c7O)C(=O)OC[C@]6(CO)[C@@H]5CC[C@]43C)[C@H]12 (stereo not given in full) ?
inactive

How was COC(=O)CCCC(=O)C1=NN(c2ccc(Cl)cc2)Cc2ccccc2N1 classified in this test?
inactive

Would you mind telling me which call this test gave Cc1ccc(S(=O)(=O)NCC2CCCCC2=O)cc1 (stereo not given) ?
inactive

Given COc1cc2nc(-c3cccs3)nc(Nc3ccccc3C(=O)NN)c2cc1OC , state the outcome it received in this test.
inactive

Recorded test outcome, item Cc1ccccc1C1OC(=O)c2ccc3ccccc3c21 (stereo not given)
inactive

What is the recorded call for this compound in the test? COc1ccc2c(c1)CC[C@@H]1C2CC[C@](C)(C#N)C1CC#N (stereo not given in full)
inactive

Per the records of this test, what outcome belongs to COC1(OC)CC(CO)(CNc2cc(Cl)nc(N)n2)C1 ?
inactive

Test call for this compound, please: N#C/C(=C\c1ccc([N+](=O)[O-])o1)c1n[nH]c(Cc2ccccc2)n1
active

// param item: O=C1Nc2ccc(Br)cc2/C1=N/NC(=S)Nc1ccc(F)cc1 ; yields the recorded call
inactive

For this compound, state the assay outcome: CSC(=S)OC1CC(n2cnc3c(NC(=O)c4ccccc4)ncnc32)OC1CO[Si](C)(C)C(C)(C)C (stereo not given)
inactive

For this compound, state the assay outcome: CCCCCCCCC/C=C1/CC(CO)(COC(=O)CC(C(C)C)C(C)C)OC1=O (stereo not given)
inactive

For this compound, state the assay outcome: Cc1cc(C)c2c(c1)N[S@@](=O)S2
inactive

Entry c1ccc(C2OC3(CCC[C@H]4C[C@H]43)O[C@H]2c2ccccc2)cc1 (stereo not given in full) : call = ?
inactive

Please let me know the test result on file for N=C(N)NS(=O)(=O)c1ccc(NC(=O)c2cccc3c(Nc4ccc(S(N)(=O)=O)cc4)c4ccccc4nc23)cc1 .
inactive
